molecular target: MICA*004 on HCC1534 cells (human, UniProt Q29983 24-383); experiment: cell-based or functional assay
metric: EC50 of shedding inhibition (µg/mL)
Quick note: give the figure in µg/mL, leave out the unit.

For record 3C9.10 (antibody, V domains shown, Mouse hybridoma antibody; constant regions differ by assay (hybridoma mouse IgG, recombinant human IgG1 or mouse IgG2a)) VH: QVQLKESGPGLVAPSQSLSITCTVSGFSLTGSGVNWVRQPPGKGLEWLGMIWGDGNTDYNSALKSRLSISKDNSKSQIFLKMNSLQTDDTARYYCARGAYYGKRWYFDVWGAGTTVTVSS VL: DIQMTQTTSSLSASLGDRVTISCSASQGISNYLNWYQQKPDGTVKLLIYYTSSLHSGVPSRFSGSGSGTDYSLTISNLEPEDIATYYCQQYSKLPPTFGGGTKVEIK the listed EC50 of shedding inhibition is 50

For record 7A3.1.9 (antibody, V domains shown, Mouse hybridoma antibody; constant regions differ by assay) VH: QVQLKESGPGLVAPSQSLSITCTVSGFALTGSGVNWVRQPPGKGLEWLGMIWGDGNTDYNSALKSRLSISKDNSKSQIFLKMNSLQTDDTARYYCARGAHYGKRWYFDVWGAGTTVTVSS VL: DIQMTQTTSSLSASLGDRVTISCSASQGINNYLNWYQQKPDGTVKLLIYYTSSLPSGVPSRFSGSGSGTDYSLTISNLEPEDIATYYCQQYSKLPPTFGGGTKVEIK the listed EC50 of shedding inhibition is 0.411

For record 18G3 (antibody, V domains shown, Mouse variable domains; constant regions differ by assay) VH: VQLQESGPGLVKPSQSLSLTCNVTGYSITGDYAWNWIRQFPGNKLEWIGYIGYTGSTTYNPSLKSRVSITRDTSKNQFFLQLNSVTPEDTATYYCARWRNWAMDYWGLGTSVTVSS VL: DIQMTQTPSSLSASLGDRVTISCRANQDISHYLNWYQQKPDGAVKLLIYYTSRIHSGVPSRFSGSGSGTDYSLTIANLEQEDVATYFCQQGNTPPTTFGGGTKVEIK the listed EC50 of shedding inhibition is 0.012

For record 15F11 (antibody, V domains shown, Mouse variable domains; constant regions differ by assay) VH: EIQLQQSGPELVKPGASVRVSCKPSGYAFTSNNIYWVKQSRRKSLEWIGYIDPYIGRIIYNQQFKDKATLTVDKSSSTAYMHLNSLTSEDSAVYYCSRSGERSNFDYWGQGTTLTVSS VL: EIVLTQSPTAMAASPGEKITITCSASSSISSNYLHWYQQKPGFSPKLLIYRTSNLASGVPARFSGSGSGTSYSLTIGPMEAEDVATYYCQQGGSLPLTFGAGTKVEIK the listed EC50 of shedding inhibition is 0.0485

For record 3E11 (antibody, V domains shown, Mouse hybridoma antibody; constant regions differ by assay) VH: EIQLQQSGPELVKPGASVKVSCTASGYAFTKYNIYWVKQSHGKSLEWIGYIDPYTGGTISNQKFTGRATLTVDKSSSTAYLHLNSLTSEDSAVYYCARPGSYWYFGVWGAGTTVTVSS VL: DILMTQTPLSLPVSLGDQASISCRSSQSIVYTNGNTNLEWYLQKPGQSPKLLIYKVSNRFSGVPDRFSGSGSGTDFTLKISRVEAEDLGVYYCFQASYVPFTFGSGTKVEIK the listed EC50 of shedding inhibition is 0.309

Next:
For record 7D4.6 (antibody, V domains shown, Mouse hybridoma antibody; constant regions differ by assay) VH: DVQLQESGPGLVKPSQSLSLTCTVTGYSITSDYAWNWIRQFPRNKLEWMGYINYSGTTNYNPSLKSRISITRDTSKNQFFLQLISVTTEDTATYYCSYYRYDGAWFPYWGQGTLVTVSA VL: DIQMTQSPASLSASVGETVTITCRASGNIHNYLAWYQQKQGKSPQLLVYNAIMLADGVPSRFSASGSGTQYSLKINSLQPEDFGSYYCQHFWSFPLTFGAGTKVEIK the listed EC50 of shedding inhibition is 0.185

For record 32D2 (antibody, V domains shown, Mouse hybridoma antibody; constant regions differ by assay) VH: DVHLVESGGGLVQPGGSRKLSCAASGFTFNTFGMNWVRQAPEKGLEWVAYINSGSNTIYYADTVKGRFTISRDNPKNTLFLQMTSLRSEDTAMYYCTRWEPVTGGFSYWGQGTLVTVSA VL: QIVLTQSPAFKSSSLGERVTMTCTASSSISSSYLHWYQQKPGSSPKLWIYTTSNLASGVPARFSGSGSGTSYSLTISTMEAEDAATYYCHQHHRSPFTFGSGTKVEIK the listed EC50 of shedding inhibition is 0.0592

For record 1E6.1.3 (antibody, V domains shown, Mouse hybridoma antibody; constant regions differ by assay) VH: QVQLKESGPGLVAPSQSLSITCTVSGFSLTGSGVNWVRQPPGQGLEWLGMIWGDGNTDYNSALKSRLSISKDNSKSQVFLKMNSLQTDDTARYYCARGAHYGKRWYFDVWGAGTTVTVSS VL: DIQMTQTTFSLSASLGDRVTISCSASQGINNYLNWYQQRPDGTVKLLIYYTSTLPSGVPSRFSGSGSGTDYSLTISNLEPEDIASYYCQQYSKLPPTFGGGTKVEIK the listed EC50 of shedding inhibition is 0.681

For record 6E12.5 (antibody, V domains shown, Mouse hybridoma antibody; constant regions differ by assay) VH: EVQLVESGGGLVKPGGSLKLSCAASGFTFSDYYMYWVRQTPEKRLEWVATISDGITYTYYSDSVRGRFTISRDNAENTLYLQMSSLKSEDTAMYYCSKGGGSTARGALDFWGQGTSVTVSS VL: DIQMNQSPSSLSASLGDTITITCHASQNIHVWLSWYQQKPGNIPKLLIYGASHLHTGVPSRFSGRGSGTGFTLTISSLQPEDIATYYCLQGQSYPLTFGSGTKVEIK the listed EC50 of shedding inhibition is 0.329

For record 13A9 (antibody, V domains shown, Mouse variable domains; constant regions differ by assay) VH: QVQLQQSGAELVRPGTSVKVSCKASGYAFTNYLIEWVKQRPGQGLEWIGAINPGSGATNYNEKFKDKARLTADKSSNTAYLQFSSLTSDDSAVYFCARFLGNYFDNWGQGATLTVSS VL: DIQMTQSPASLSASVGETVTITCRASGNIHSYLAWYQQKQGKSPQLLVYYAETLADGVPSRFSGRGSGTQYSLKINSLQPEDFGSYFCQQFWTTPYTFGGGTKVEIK the listed EC50 of shedding inhibition is 0.166
